Assay: Binding affinity to FLAG/His-tagged Keap1 (unknown origin)/biotinylated full-length FLAG/His/Tev/Avi-tagged Cul3 (unknown origin) expressed in baculovirus infected Sf9 insect cells measured after 1 hr by TR-FRET assay
Design: species or system Homo sapiens
measurement name: pIC50

input: Given the entry CC(C)(C)OC(=O)N1CCC(SC(=S)NCCCCNC(=O)OCc2ccccn2)CC1 , report its measured pIC50.
output: < 4

input: Given the entry C[S+]([O-])CCCCNC(=S)SCc1cccc([N+](=O)[O-])c1 (stereo not given) , report its measured pIC50.
output: < 4

input: Given the entry CN1CCC(SC(=S)NCC2CCS(=O)(=O)C2)CC1 (stereo not given) , report its measured pIC50.
output: < 4

input: Given the entry O=S(=O)(CCCCN=C=S)CCN1CCOCC1 , report its measured pIC50.
output: < 4

input: Given the entry CC(C)(C)OC(=O)N1CCC(SC(=O)NCCCCNC(=S)SC2CCN(C(=O)OC(C)(C)C)CC2)CC1 , report its measured pIC50.
output: < 4
